molecular target: human GHSR1a (Homo sapiens); test: Aequorin luminescent functional assay (intracellular Ca2+, ghrelin-stimulated); details: stable cell line expressing human GHSR1a and apoaequorin; final ghrelin 3x EC50 (20 nM); read-out: Class (based on IC50 values)
Sequence (Q92847 whole entry): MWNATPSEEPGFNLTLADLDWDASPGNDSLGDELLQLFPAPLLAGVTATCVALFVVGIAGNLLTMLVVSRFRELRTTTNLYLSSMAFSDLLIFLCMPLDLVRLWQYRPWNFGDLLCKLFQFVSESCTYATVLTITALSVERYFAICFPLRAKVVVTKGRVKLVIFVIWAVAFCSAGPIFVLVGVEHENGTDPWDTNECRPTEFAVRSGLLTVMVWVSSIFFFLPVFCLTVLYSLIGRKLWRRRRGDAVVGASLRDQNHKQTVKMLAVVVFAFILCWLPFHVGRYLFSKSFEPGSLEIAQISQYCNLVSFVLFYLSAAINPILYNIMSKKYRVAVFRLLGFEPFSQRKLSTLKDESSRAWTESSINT
pIC50: −log10 of the molar value.
Parameter: pIC50. Scope: all listed entries.

(Q) Check the records and state pIC50 for CC(C)C(C(=O)N1CCC(NC2CC2)CC1)N1CCc2ccc(Oc3ccc(F)cc3F)cc2C1=O (stereo not shown)
(A) ≥ 8.00

(Q) State its pIC50: CC(C)C(C(=O)N1CCC(NCc2ccc(F)cc2)CC1)N1CC=Cc2ccc(Oc3ccc(F)cc3F)cc2C1=O (stereo not shown)
(A) ≥ 8.00

(Q) State its pIC50 for this molecule: CC(C)C(COC1CCN(CC2CC2)CC1)N1CCc2ccc(Oc3ccc(F)cc3F)cc2C1=O (stereo not shown)
(A) ≥ 8.00

(Q) Answer with the recorded pIC50 of Cc1ccccc1Oc1ccc2c(c1)C(=O)N(C(C(=O)N1CCC(NCCc3ccc(F)cc3)CC1)C(C)C)CCN2C (stereo not shown) only.
(A) 7.30 to 8.00

(Q) For the molecule CC(C)C(CCC1CCN(CC2CC2)CC1)N1CCc2ccc(Oc3ccc(F)cc3F)cc2C1=O (stereo not shown) , report pIC50.
(A) ≥ 8.00

(Q) Name the recorded pIC50 of the molecule listed here: O=C1c2cc(Oc3ccc(F)cc3F)ccc2CCN1[C@@H](c1cccc(CNCC2CC2)n1)C1CC1
(A) ≥ 8.00

(Q) Supply reported pIC50 belonging to this molecule: Cc1cccc(C)c1Oc1ccc2c(c1)C(=O)N(C(C(=O)NC1CCN(C3CCc4ccccc43)CC1)C(C)C)CC(=O)N2 (stereo not shown)
(A) ≥ 8.00

(Q) Please report the measured pIC50 for CC(C)C(COC(=O)C1CCN(Cc2ccccc2)CC1)N1CC(=O)Nc2ccc(Oc3ccc(F)cc3)cc2C1=O (stereo not shown)
(A) 7.30 to 8.00
